target: Phosphatidylinositol 4,5-bisphosphate 3-kinase catalytic subunit gamma isoform (Homo sapiens); experiment: Inhibition of PI3K p120gamma (unknown origin) using phosphatidylinositol 4,5-bisphosphate as substrate in presence of ATP incubated for 60 mins by ADP-Glo assay
pIC50: −log10 of the molar value.
Use y when the recorded pIC50 is no lower than 8; use n when it is lower.

{"columns": ["compound", "discrete_label"],
 "data": [
  ["COc1cc(-c2c[nH]c3ncc(-c4cc(C)c5c(c4)CN([C@@H](C)C4CC4)C5=O)cc23)ccc1C(=O)O", "y"],
  ["C[C@@H](C1CC1)N1Cc2cc(-c3cnc4[nH]cc(-c5cnn(C)c5)c4c3)cc(Cl)c2C1=O", "y"],
  ["Cc1cc(-c2cnc3[nH]ccc3c2)cc2c1C(=O)N([C@@H](C)C1CC1)C2", "n"],
  ["Cc1cc(-c2c[nH]c3ncc(-c4cc5c(c(C(F)(F)F)c4)C(=O)N([C@@H](C)C4CC4)C5)cc23)cc(C)c1C(=O)O", "y"],
  ["Cc1cc(-c2cnc3[nH]cc(-c4cc(C)c(C(=O)O)c(C5CC5)c4)c3c2)cc2c1C(=O)N([C@@H](C)C1CC1)C2", "y"],
  ["Cc1cc(-c2cnc3[nH]c(=O)ccc3c2)cc2c1C(=O)N(C(C)C1CC1)C2 (racemic)", "n"],
  ["Cc1cc(-c2cnc3[nH]cc(C4CCNC4)c3c2)cc2c1C(=O)N([C@@H](C)C1CC1)C2 (stereo partly specified)", "n"],
  ["Cc1cc(-c2cnc3[nH]cc(-c4ccc(S(N)(=O)=O)cc4)c3c2)cc2c1C(=O)N([C@@H](C)C1CC1)C2", "y"],
  ["Cc1cc(-c2cnc3[nH]cc(-c4ccc(C(=O)O)c(C(C)C)c4)c3c2)cc2c1C(=O)N([C@@H](C)C1CC1)C2", "y"],
  ["CC(C)c1cc(-c2cnc3[nH]cc(-c4cnn(C)c4)c3c2)cc2c1C(=O)N([C@@H](C)C1CC1)C2", "y"],
  ["Cc1cc(-c2cnc3[nH]ncc3n2)cc2c1C(=O)N([C@@H](C)C1CC1)C2", "n"],
  ["Cc1cc(-c2cnc3[nH]cc(-c4ccc(C(=O)O)c(C5CC5)c4)c3c2)cc2c1C(=O)N([C@@H](C)C1CC1)C2", "y"],
  ["Cc1cc(-c2cnc3c(c2)CC(=O)N3)cc2c1C(=O)N(C(C)C1CC1)C2 (racemic)", "n"],
  ["Cc1cc(-c2cnc3[nH]cc(-c4cccc(C(=O)O)c4)c3c2)cc2c1C(=O)N([C@@H](C)C1CC1)C2", "y"],
  ["C[C@@H](C1CC1)N1Cc2cc(-c3cnc4[nH]cc(-c5ccc(C6(C(=O)O)CC6)cc5)c4c3)cc(C(F)(F)F)c2C1=O", "y"]
]}

* * *

target: Phosphatidylinositol 4,5-bisphosphate 3-kinase catalytic subunit gamma isoform (Homo sapiens, UniProt P48736); assay: Inhibition of PI3Kgamma in human THP-1 cells assessed as reduction in Akt phosphorylation at S473 residue incubated for 60 mins measured after 120 mins by alphalisa assay; type: cell-based
Sequence (P48736 whole entry, canonical isoform): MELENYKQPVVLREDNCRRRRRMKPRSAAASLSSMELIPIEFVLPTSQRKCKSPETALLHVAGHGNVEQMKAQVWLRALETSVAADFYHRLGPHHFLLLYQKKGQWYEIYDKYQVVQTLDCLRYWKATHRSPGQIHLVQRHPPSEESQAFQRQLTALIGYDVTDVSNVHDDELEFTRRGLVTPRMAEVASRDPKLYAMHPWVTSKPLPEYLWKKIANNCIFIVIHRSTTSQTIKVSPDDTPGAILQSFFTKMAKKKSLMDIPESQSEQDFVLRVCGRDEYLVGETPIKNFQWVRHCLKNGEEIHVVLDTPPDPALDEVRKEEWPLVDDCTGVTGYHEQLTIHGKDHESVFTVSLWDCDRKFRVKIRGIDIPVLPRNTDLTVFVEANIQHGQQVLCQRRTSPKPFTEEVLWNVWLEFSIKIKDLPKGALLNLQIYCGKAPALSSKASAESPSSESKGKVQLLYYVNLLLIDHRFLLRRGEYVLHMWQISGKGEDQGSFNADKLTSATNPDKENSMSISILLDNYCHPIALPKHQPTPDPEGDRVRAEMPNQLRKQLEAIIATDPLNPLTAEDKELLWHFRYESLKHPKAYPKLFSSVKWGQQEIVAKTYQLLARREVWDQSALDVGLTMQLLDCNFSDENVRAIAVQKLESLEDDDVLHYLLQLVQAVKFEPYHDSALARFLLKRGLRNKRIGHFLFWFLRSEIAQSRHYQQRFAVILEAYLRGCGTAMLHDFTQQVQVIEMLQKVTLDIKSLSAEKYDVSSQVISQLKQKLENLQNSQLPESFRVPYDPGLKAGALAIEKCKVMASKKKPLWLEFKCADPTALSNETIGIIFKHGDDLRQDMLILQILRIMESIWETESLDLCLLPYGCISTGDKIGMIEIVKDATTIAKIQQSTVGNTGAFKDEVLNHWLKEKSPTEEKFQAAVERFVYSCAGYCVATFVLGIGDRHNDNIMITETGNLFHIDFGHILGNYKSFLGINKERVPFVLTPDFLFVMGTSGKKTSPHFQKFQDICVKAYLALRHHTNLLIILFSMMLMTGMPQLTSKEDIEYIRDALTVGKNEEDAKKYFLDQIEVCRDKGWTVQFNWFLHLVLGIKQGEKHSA
pIC50: −log10 of the molar value.
Listed compounds paired with reported pIC50

{"columns": ["smiles", "pIC50"],
 "data": [
  ["Cc1cc(-c2cnc3[nH]cc(C(=O)O)c3c2)cc2c1C(=O)N([C@@H](C)C1CC1)C2", 4.96],
  ["COC[C@H](C)N1Cc2cc(-c3cnc4[nH]cc(-c5ccncc5)c4c3)cc(C)c2C1=O", 6.22],
  ["Cc1cc(-c2cnc3[nH]cc(-c4ccc(C(C)(C)O)nc4)c3c2)cc2c1C(=O)N([C@@H](C)C1CC1)C2", 6.22],
  ["Cc1cc(-c2cnc3[nH]cc(-c4ccccn4)c3c2)cc2c1C(=O)N([C@@H](C)C1CC1)C2", 5.46]
]}
